Each item that follows carries a reported pIC50.
# Measured target: T1, wild-type human PTH/PTHrP receptor (hP1R-WT) (human, UniProt Q03431 27-593)
# T1 construct: whole, on cells; HKRK-B28 cells express ~280,000 receptors per cell; also called PTH-1 receptor; PTH-1R
# T1 sequence (looked up): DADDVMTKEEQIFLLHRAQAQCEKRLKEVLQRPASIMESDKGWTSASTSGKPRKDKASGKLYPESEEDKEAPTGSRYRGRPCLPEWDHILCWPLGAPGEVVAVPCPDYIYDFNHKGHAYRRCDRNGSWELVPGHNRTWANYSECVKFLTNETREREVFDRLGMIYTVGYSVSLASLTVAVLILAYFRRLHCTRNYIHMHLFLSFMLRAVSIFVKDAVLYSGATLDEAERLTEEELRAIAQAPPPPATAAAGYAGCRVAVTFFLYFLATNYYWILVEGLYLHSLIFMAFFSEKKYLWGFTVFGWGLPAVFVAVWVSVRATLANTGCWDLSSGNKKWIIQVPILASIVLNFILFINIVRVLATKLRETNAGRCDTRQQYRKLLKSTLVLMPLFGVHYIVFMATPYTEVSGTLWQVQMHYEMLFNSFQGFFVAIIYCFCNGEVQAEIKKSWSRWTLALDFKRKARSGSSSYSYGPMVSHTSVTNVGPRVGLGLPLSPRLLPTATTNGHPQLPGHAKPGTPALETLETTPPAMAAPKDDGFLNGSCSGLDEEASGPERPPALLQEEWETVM
# Procedure text: competition binding, 125I-[M]PTH(1-21) tracer, HKRK-B28 cells, 4 h at 4 C
Square brackets hold non-standard residues; d marks the D form. Ends that are not written are not given here. hArg = N=C(N)NCCCC[C@H](N)C(=O)O; Aib = CC(C)(N)C(=O)O
By convention, pIC50 is the negative base-10 log of a molar concentration.

Past entries and their recorded results:
[Aib]V[Aib]EIQLMHQ[hArg]-NH2 (N-terminus assumed; SMILES CC[C@H](C)[C@H](NC(=O)[C@H](CCC(=O)O)NC(=O)C(C)(C)NC(=O)[C@@H](NC(=O)C(C)(C)N)C(C)C)C(=O)N[C@@H](CCC(N)=O)C(=O)N[C@@H](CC(C)C)C(=O)N[C@@H](CCSC)C(=O)N[C@@H](Cc1c[nH]cn1)C(=O)N[C@@H](CCC(N)=O)C(=O)N[C@@H](CCCCNC(=N)N)C(N)=O, also called 682 [Aib^1,3, M]PTH (1-11); [Aib^1,3,Gln^10,Har^11]PTH(1-11)) [[Aib^1,3,M]PTH(1-11)]: 6.01
AVSEIQLXHNLGKHLASVERXQWLRKKLQDVHNY (Nle (norleucine) at 8 and 21; C-terminal amide, also called 92 PTH(1-34); 92.5 PTH(1-34)) [[Nle^8,21,Tyr^34]PTH(1-34)amide (rat sequence)]: 7.74

Consider the record given below.
Given item AVAEIQLMHQ[hArg]A[Aib]W-NH2 (N-terminus assumed; SMILES CC[C@H](C)[C@H](NC(=O)[C@H](CCC(=O)O)NC(=O)[C@H](C)NC(=O)[C@@H](NC(=O)[C@H](C)N)C(C)C)C(=O)N[C@@H](CCC(N)=O)C(=O)N[C@@H](CC(C)C)C(=O)N[C@@H](CCSC)C(=O)N[C@@H](Cc1c[nH]cn1)C(=O)N[C@@H](CCC(N)=O)C(=O)N[C@@H](CCCCNC(=N)N)C(=O)N[C@@H](C)C(=O)NC(C)(C)C(=O)N[C@@H](Cc1c[nH]c2ccccc12)C(N)=O, Aib scan of [M]PTH(1-14); also called 634 Aib-13) [[Aib^13,M]PTH(1-14)] , the value recorded as its pIC50 is 4.36
